- assay procedure: Pharmacokinetic study in rats after single oral administration of GJK (UPLC-MS/MS of plasma)
- Type: in vivo, Sprague–Dawley rats
- run parameters: Sprague-Dawley, in vivo; rat plasma, single oral GJK 24 g/kg, n = 6, zero to last sampling time, mean ± S.D.
- Method: Chromatographic analyses were performed using an Agilent 1290 series UPLC system (Agilent Technologies, Santa Clara, CA, USA) equipped with a binary pump, an online degasser, an auto plate sampler, and a thermostatically controlled column compartment. The determination was carried out at 30 °C on a Waters Acquity UPLC C18 column (100 mm × 2.1 mm, […], Waters, Milford, MA, USA). […]
readout kind: AUC(0-t) (ng·h/mL)

> print(dat)
                                   compound  unit.symbol  measured
1  COCC12CCC(OC)C34C5CC6(O)C(OC)C(O)C(O)(C5C6OC(=O)c5ccccc5)C(C(OC)C13)C4N(C)C2 (centres unmarked)      ng·h/mL      72.1
2          COc1ccc(-c2coc3cc(O)ccc3c2=O)cc1      ng·h/mL      15.2
3  C[C@@]12C[C@@]3(O)O[C@@H](O1)[C@]1(COC(=O)c4ccccc4)[C@H]3C[C@@]12O[C@@H]1O[C@H](CO)[C@@H](O)[C@H](O)[C@H]1O      ng·h/mL      1220
4         O=C(/C=C/c1ccc(O)cc1)c1ccc(O)cc1O      ng·h/mL      2650
5  COc1cc2c(cc1OC)[C@@H]1Cc3ccc(OC)c(OC)c3CN1CC2 [Tetrahydropalmatine, tetrahydropalmatine]      ng·h/mL       170

* * *

- assay procedure: Stability of the analytes in rat plasma under different storage conditions (QC samples)
- Type: in vitro ADME
- run parameters: rat, plasma, rat plasma, 25 °C for 4 h, high QC concentration, n = 3
readout kind: remaining at 4 h (%)

compound	readout kind	measured
COCC12CCC(OC)C34C5CC6(O)C(OC)C(O)C(O)(C5C6OC(=O)c5ccccc5)C(C(OC)C13)C4N(C)C2 (centres unmarked) [Benzoylhypaconine, benzoylhypaconine]	remaining at 4 h	105
COc1cc2c(cc1OC)[C@@H]1Cc3ccc(OC)c(OC)c3CN1CC2 [Tetrahydropalmatine, tetrahydropalmatine]	remaining at 4 h	102
O=C(/C=C/c1ccc(O)cc1)c1ccc(O)cc1O [Isoliquiritigenin, isoliquiritigenin]	remaining at 4 h	103
C[C@@]12C[C@@]3(O)O[C@@H](O1)[C@]1(COC(=O)c4ccccc4)[C@H]3C[C@@]12O[C@@H]1O[C@H](CO)[C@@H](O)[C@H](O)[C@H]1O [Paeoniflorin, paeoniflorin]	remaining at 4 h	96.4
COc1ccc(-c2coc3cc(O[C@@H]4O[C@H](CO)[C@@H](O)[C@H](O)[C@H]4O)ccc3c2=O)cc1O [Calycosin-7-glucoside, calycosin-7-glucoside]	remaining at 4 h	103

* * *

- assay procedure: Stability of the analytes in rat plasma under different storage conditions (QC samples)
- Type: in vitro ADME
- run parameters: rat plasma, freeze–thaw cycles (three), high QC concentration, n = 3

compound	Remaining (%)
COCC12CCC(OC)C34C5CC6(O)C(OC)C(O)C(O)(C5C6OC(=O)c5ccccc5)C(C(OC)C13)C4N(C)C2 (centres unmarked) [Benzoylhypaconine, benzoylhypaconine]	106.9
O=C(/C=C/c1ccc(O)cc1)c1ccc(O)cc1O [Isoliquiritigenin, isoliquiritigenin]	105.2
C[C@@]12C[C@@]3(O)O[C@@H](O1)[C@]1(COC(=O)c4ccccc4)[C@H]3C[C@@]12O[C@@H]1O[C@H](CO)[C@@H](O)[C@H](O)[C@H]1O [Paeoniflorin, paeoniflorin]	105.0
COc1cc2c(cc1OC)[C@@H]1Cc3ccc(OC)c(OC)c3CN1CC2 [Tetrahydropalmatine, tetrahydropalmatine]	108.1
COc1ccc(-c2coc3cc(O[C@@H]4O[C@H](CO)[C@@H](O)[C@H](O)[C@H]4O)ccc3c2=O)cc1O [Calycosin-7-glucoside, calycosin-7-glucoside]	107.4

* * *

Below: a set of entries, each annotated with reported Remaining (%).
- assay procedure: Stability of the analytes in rat plasma under different storage conditions (QC samples)
- Assay type: in vitro ADME
- run parameters: rat plasma, freeze–thaw cycles (three), low QC concentration, n = 3
readout kind: Remaining (%)

molecule	readout kind	measured
COc1cc2c(cc1OC)[C@@H]1Cc3ccc(OC)c(OC)c3CN1CC2 [Tetrahydropalmatine, tetrahydropalmatine]	Remaining (%)	89.9%
COCC12CCC(OC)C34C5CC6(O)C(OC)C(O)C(O)(C5C6OC(=O)c5ccccc5)C(C(OC)C13)C4N(C)C2 (centres unmarked) [Benzoylhypaconine, benzoylhypaconine]	Remaining (%)	109.6%
COc1ccc(-c2coc3cc(O[C@@H]4O[C@H](CO)[C@@H](O)[C@H](O)[C@H]4O)ccc3c2=O)cc1O [Calycosin-7-glucoside, calycosin-7-glucoside]	Remaining (%)	108.1%
O=C(/C=C/c1ccc(O)cc1)c1ccc(O)cc1O [Isoliquiritigenin, isoliquiritigenin]	Remaining (%)	106.3%
C[C@@]12C[C@@]3(O)O[C@@H](O1)[C@]1(COC(=O)c4ccccc4)[C@H]3C[C@@]12O[C@@H]1O[C@H](CO)[C@@H](O)[C@H](O)[C@H]1O [Paeoniflorin, paeoniflorin]	Remaining (%)	107.8%

* * *

- assay procedure: Stability of the analytes in rat plasma under different storage conditions (QC samples)
- Type: in vitro ADME
- run parameters: rat, plasma, extracted plasma QC samples in auto-sampler, 4 °C for 24 h, high QC concentration, n = 3
Recorded remaining at 24 h values for a group of compounds are listed next.

compound	unit symbol	remaining at 24 h
O=C(/C=C/c1ccc(O)cc1)c1ccc(O)cc1O [Isoliquiritigenin, isoliquiritigenin]	%	102
COc1cc2c(cc1OC)[C@@H]1Cc3ccc(OC)c(OC)c3CN1CC2 [Tetrahydropalmatine, tetrahydropalmatine]	%	101
C[C@@]12C[C@@]3(O)O[C@@H](O1)[C@]1(COC(=O)c4ccccc4)[C@H]3C[C@@]12O[C@@H]1O[C@H](CO)[C@@H](O)[C@H](O)[C@H]1O [Paeoniflorin, paeoniflorin]	%	103
COCC12CCC(OC)C34C5CC6(O)C(OC)C(O)C(O)(C5C6OC(=O)c5ccccc5)C(C(OC)C13)C4N(C)C2 (stereo not shown) [Benzoylhypaconine, benzoylhypaconine]	%	104
